Cited source for all entries: ChEMBL document CHEMBL1821702

assay: Aqueous solubility of compound in distilled water
Type: physicochemical
reported-metric: solubility (mg/mL)
Answers are plain numbers, in mg/mL.

Request: Fill in the blank: the reported solubility of COc1ccc2c(c1OC)C(C)(C)[N+]1=C(C2)c2cc3c(cc2CC1)OCO3.[Cl-] [8,8-dimethyldihydroberberine] is ____.
Result: 81

----------
assay: Stability in acidic buffer at pH 2 after 6 hrs by HPLC
Format: physicochemical
measurement-context: acidic buffer, pH 2
reported-metric: decrease in content after 6 h at 6 h (%)
Numbers only, in %.

Request: Can you share its decrease in content after 6 h at 6 h? I mean this molecule: COc1ccc2c(c1OC)CN1CCc3cc4c(cc3C1=C2)OCO4 [DIHYDROBERBERINE]
Result: 17

----------
assay: Cmax in 12 hrs fasting Sprague-Dawley rat at 10 mg/kg, po
Type: ADME, organism-based
Parameters: dose 10 mg/kg, route oral
measurement-context: in vivo
reported-metric: Cmax (ng/mL)
Give bare numbers, in ng/mL.

Request: Any idea what Cmax was measured for COc1ccc2c(c1OC)C(C)(C)[N+]1=C(C2)c2cc3c(cc2CC1)OCO3.[Cl-] [8,8-dimethyldihydroberberine] ?
Result: 17.8
